Molecular target: Endothelin receptor, ET-A/ET-B (Homo sapiens) (UniProt P24530+P25101)
Sequence (P24530 whole entry, looked up, one chain of several): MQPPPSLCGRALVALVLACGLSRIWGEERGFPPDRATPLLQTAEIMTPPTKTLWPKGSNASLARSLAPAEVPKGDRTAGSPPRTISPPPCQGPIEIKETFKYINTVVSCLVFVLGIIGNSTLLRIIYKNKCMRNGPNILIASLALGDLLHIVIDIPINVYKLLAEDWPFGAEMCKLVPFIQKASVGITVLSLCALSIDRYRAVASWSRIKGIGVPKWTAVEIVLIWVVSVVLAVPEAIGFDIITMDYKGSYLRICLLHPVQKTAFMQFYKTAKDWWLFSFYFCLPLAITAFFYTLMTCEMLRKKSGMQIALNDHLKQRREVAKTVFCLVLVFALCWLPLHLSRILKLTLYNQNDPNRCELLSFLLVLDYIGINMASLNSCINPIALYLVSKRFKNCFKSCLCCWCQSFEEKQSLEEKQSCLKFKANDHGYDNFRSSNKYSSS
Test: Relative affinity for human ETA over ETB receptors.
Type: protein assay
Measure name: Selectivity

// worked examples, Selectivity included
CC(=O)c1cc(C)cc(C)c1NC(=O)c1sccc1S(=O)(=O)Nc1onc(C)c1Cl
442000
Cc1cc(C)c(NC(=O)c2sccc2S(=O)(=O)Nc2onc(C)c2Cl)c(C)c1
7000
Cc1cc(C)c(NC(=O)c2sccc2S(=O)(=O)Nc2noc(C)c2Cl)c(C)c1CC#N
8500
Cc1cc(C)c(NC(=O)c2sccc2S(=O)(=O)Nc2onc(C)c2C)c(C)c1CC#N
14600
Cc1cc(C)c(NC(=O)c2sccc2S(=O)(=O)Nc2onc(C)c2Cl)c(C)c1CC#N
32900
Cc1cc2c(cc1CC(=O)c1sccc1S(=O)(=O)Nc1onc(C)c1C)OCO2
10000
Cc1cc(C)c(NC(=O)c2sccc2S(=O)(=O)Nc2onc(C)c2Cl)c(C)c1O
10900
Cc1noc(NS(=O)(=O)c2ccsc2C(=O)Cc2ccc3c(c2)OCO3)c1Cl
300

[a] Cc1cc(C)c(CC(=O)c2sccc2S(=O)(=O)Nc2onc(C)c2Cl)c(C)c1O
[b] Cc1ccc(NC(=O)c2sccc2S(=O)(=O)Nc2onc(C)c2Cl)cc1
[c] Cc1noc(NS(=O)(=O)c2ccsc2C(=O)Nc2ccc3c(c2)OCO3)c1Br
Exercise: Which order do these items take when sorted by rising Selectivity? List them. List labels; respect the requested ordering.
Key: c, b, a
(c: 500, b: 940, a: 10800)

[a] Cc1cc(C)c(NC(=O)c2sccc2S(=O)(=O)Nc2onc(C)c2Cl)c(C(=O)C(C)C)c1
[b] Cc1cc2c(cc1CC(=O)c1sccc1S(=O)(=O)Nc1onc(C)c1Cl)OCO2
Exercise: Please indicate which has the smaller reported Selectivity: a , or b . Reply briefly: the label of your chosen item.
Key: b
(b: 7000, a: 14000)

[a] CC(=O)c1cc2c(cc1NC(=O)c1sccc1S(=O)(=O)Nc1onc(C)c1Cl)OCO2
[b] Cc1noc(NS(=O)(=O)c2ccsc2C(=O)Nc2cc3c(cc2C#N)OCO3)c1Cl
Exercise: Sort a and b by Selectivity descending and give the first. Reply briefly: the label of your chosen item.
Key: b
(b: 12000, a: 3000)

---

Target chain: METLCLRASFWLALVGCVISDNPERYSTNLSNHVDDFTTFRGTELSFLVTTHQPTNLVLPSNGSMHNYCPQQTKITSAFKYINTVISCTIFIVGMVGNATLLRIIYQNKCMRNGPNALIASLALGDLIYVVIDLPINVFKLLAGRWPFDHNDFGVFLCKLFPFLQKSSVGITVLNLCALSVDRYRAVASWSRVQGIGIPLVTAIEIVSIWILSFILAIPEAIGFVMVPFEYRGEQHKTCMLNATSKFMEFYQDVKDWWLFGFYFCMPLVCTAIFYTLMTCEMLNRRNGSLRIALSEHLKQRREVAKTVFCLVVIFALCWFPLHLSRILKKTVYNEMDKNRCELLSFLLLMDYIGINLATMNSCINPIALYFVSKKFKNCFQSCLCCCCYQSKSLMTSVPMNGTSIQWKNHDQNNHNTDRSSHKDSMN
Measure name: IC50 (nM)

CCc1cc(C)cc(C)c1NC(=O)c1sccc1S(=O)(=O)Nc1onc(C)c1Cl
0.43

[I] Cc1cc(C)c(NC(=O)c2sccc2S(=O)(=O)Nc2noc(C)c2Cl)c(C)c1CC#N
[II] Cc1cc(C)c(NC(=O)c2sccc2S(=O)(=O)Nc2onc(C)c2C)c(C)c1CC#N
Exercise: Please indicate which has the smaller reported IC50: I , or II . Reply briefly: the label of your chosen item.
Key: I
(I: 0.1 nM, II: 0.17 nM)
